Reference source: the supplement of paper PMC6555819

- Test system: PPARg DBDmut IVT, anti-PPARg (DBD mutation: PPARg1 K132A/R137A, NR concentration 270 nM)
- ASSAY PROCEDURE: PBM binding z-score (relative to random genomic background probes); higher = stronger binding; sequences stand for … in GC…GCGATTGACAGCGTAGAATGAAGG
MEASUREMENT LABEL: PBM binding z-score
Lab note: jot the number down without any unit.

The cases that follow already have their PBM binding z-score on record.
SEQUENCE CHAIN	ASSAY TARGET	PBM binding z-score
CCGACTGGGGCAAGGTTAACATAACGCACAGCCA	PPARg DBDmut IVT, anti-PPARg (DBD mutation: PPARg1 K132A/R137A, NR concentration 270 nM)	-0.475
GCGACGGGGGCAAAGCAGGTTACCATAAGGTTGG	PPARg DBDmut IVT, anti-PPARg (DBD mutation: PPARg1 K132A/R137A, NR concentration 270 nM)	8.05
CAAACTAGGTCAAGGCCAAAGTCGGTTTGTGCCA	PPARg DBDmut IVT, anti-PPARg (DBD mutation: PPARg1 K132A/R137A, NR concentration 270 nM)	3.41
ATCTCTAGGTAAAAGTTTAGTGAATCCCGAGGAT	PPARg DBDmut IVT, anti-PPARg (DBD mutation: PPARg1 K132A/R137A, NR concentration 270 nM)	0.97
CGTTAAAGTTCAACTAAGGTAACGTAAAGCACGC	PPARg DBDmut IVT, anti-PPARg (DBD mutation: PPARg1 K132A/R137A, NR concentration 270 nM)	1.18
GCTTGTAGATCAAGGATAAGAAAGACTAAGCTAA	PPARg DBDmut IVT, anti-PPARg (DBD mutation: PPARg1 K132A/R137A, NR concentration 270 nM)	-0.526
CGTCCAAGGTCAAAGTTCAGTGAAGAGATGACGG	PPARg DBDmut IVT, anti-PPARg (DBD mutation: PPARg1 K132A/R137A, NR concentration 270 nM)	1.29
TCTAGCAGGCCAGAGGGTTACTCAAGAGGTACGG	PPARg DBDmut IVT, anti-PPARg (DBD mutation: PPARg1 K132A/R137A, NR concentration 270 nM)	-1.09

Challenge: Report PBM binding z-score, nothing else, for this sequence: CTCGAAAGGTCTGTTGAGGTGAGTATACGGATAA
Response given: 0.237

Challenge: Report PBM binding z-score, nothing else, for this sequence: TCTAGTTGGTCAATGGTCACACACTCGAAATGCG
Response given: 1.19

Challenge: Report PBM binding z-score, nothing else, for this sequence: AGCCAAAGTTCAGGACGAGGTAACGTAAAGCACG
Response given: -0.0617

Challenge: Report PBM binding z-score, nothing else, for this sequence: AGTCAAAGTTCATCTAGGTAATGTAAGATATGCT
Response given: 1.47

Challenge: Report PBM binding z-score, nothing else, for this sequence: ATCGAAAGGTCGACGAGGTGTGTATACACCGTTT
Response given: 0.936

Challenge: Report PBM binding z-score, nothing else, for this sequence: CCTATTAGTTGACCATCAGGGCAACCGAAGCTCG
Response given: 0.943
